Target: T1, ZFP SBS#568 (synthetic)
T1 chain: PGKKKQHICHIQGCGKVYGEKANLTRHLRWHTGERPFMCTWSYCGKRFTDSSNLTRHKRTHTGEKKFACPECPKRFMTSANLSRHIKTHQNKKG
Assay: EMSA
Conditions: tags: MBP fusion
Observed property: pKd
Would you please state pKd, meaning minus log10 of the concentration in mol/L, as a bare number?

Recorded pKd for GATGACGAC (dsDNA) DNA 1: GATGACGAC DNA 2: GTCGTCATC , please?
6.52

Hello, the source for this data is patent US20030068675, in case you need it.
